Would you kindly list Substrate use, 590 nm absorbance normalized to zero hour, 7 hr for each of these compounds?
Tested on: NHBE cells
assay-details: Biolog metabolic array: substrate use by NHBE cells with or without CA09 infection
Assay type: cell-based, human
setup-conditions: Control (uninfected) NHBE cells, Biolog PMM2, 7 hr
One number for each entry.

1. O=C(CO)[C@@H](O)[C@@H](O)[C@H](O)CO; 0.32
2. CO[C@@H]1O[C@H](CO)[C@H](O)[C@H](O)[C@H]1O [b-Methyl-D-Galactoside]; 1.17
3. OC[C@H]1O[C@H](O[C@H]2O[C@H](CO)[C@@H](O)[C@H](O)[C@H]2O)[C@H](O)[C@@H](O)[C@@H]1O; 4.20

Give one value of Substrate use, 590 nm absorbance normalized to zero hour, 7 hr per listed compound.
1. CC[C@H](O)C(=O)O (racemic) [D,L-a-Hydroxy-Butyric Acid]
2. O=P(O)(O)O[C@H]1O[C@H](CO)[C@@H](O)[C@H](O)[C@H]1O [D-Glucose-1-Phosphate]
3. CO[C@H]1O[C@H](CO)[C@@H](O)[C@H](O)[C@@H]1O [a-Methyl-D-Mannoside]

[1.41, 1.10, 2.46]

Request body: readout Substrate use, 590 nm absorbance normalized to zero hour, 7 hr, system NHBE cells, query OC[C@H]1O[C@H](OC[C@H]2O[C@H](O[C@]3(CO)O[C@H](CO)[C@@H](O)[C@@H]3O)[C@H](O)[C@@H](O)[C@@H]2O)[C@H](O)[C@@H](O)[C@H]1O . Return the value.
1.71
